This collection of values is drawn from ChEMBL document CHEMBL5055676.

// values below are reported logIC50
Target: Neuronal acetylcholine receptor; alpha4/beta2 (Homo sapiens, UniProt P17787+P43681)
Test: Inhibition of human (alpha4)2(beta2)3 nAChR expressed in Xenopus laevis oocytes assessed as inhibition of acetylcholine-induced current response in presence of 3 uM acetylcholine by two-electrode voltage-clamp method
Assay type: cell-based
Details: Oocyte

compound.structure	measured.target	logIC50
CCN1C[C@]2(COC(=O)c3ccccc3N3C(=O)C[C@H](C)C3=O)CC[C@H](OC)[C@]34C1[C@@](O)([C@@H](OC)[C@H]23)[C@@]1(O)C[C@H](OC)[C@H]2C[C@@H]4[C@@H]1[C@H]2OC	Neuronal acetylcholine receptor; alpha4/beta2 (Homo sapiens, UniProt P17787+P43681)	-0.8
C=C1[C@@H]2CCC[C@@]1(COC(=O)c1ccccc1-c1cc(NC(C)=O)ccn1)CN(CC)C2	Neuronal acetylcholine receptor; alpha4/beta2 (Homo sapiens, UniProt P17787+P43681)	1.2
C=C1[C@@H]2CCC[C@@]1(COC(=O)c1ccccc1-c1cccc(NC(C)=O)n1)CN(CC)C2	Neuronal acetylcholine receptor; alpha4/beta2 (Homo sapiens, UniProt P17787+P43681)	1.4
C=C1[C@@H]2CCC[C@@]1(COC(=O)c1ccccc1-c1ccc(NC(C)=O)cn1)CN(CC)C2	Neuronal acetylcholine receptor; alpha4/beta2 (Homo sapiens, UniProt P17787+P43681)	1.5

====

Target: Neuronal acetylcholine receptor subunit alpha-7 (Rattus norvegicus)
Sequence (Q05941 whole entry): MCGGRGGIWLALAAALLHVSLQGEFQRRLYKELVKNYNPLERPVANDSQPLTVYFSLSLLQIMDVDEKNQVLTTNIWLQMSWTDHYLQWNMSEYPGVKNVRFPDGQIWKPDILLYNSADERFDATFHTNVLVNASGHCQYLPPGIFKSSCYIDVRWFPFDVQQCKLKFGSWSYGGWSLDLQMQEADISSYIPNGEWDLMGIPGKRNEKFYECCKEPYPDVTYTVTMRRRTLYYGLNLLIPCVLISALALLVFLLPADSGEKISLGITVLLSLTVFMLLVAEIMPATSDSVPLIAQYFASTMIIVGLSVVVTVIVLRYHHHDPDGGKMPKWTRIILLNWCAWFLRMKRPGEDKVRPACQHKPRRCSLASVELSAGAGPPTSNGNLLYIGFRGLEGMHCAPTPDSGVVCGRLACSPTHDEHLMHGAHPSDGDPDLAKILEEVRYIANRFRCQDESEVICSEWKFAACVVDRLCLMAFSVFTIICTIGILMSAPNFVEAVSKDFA
Assay: Inhibition of rat alpha7 nAChR expressed in Xenopus laevis oocytes assessed as inhibition of acetylcholine-elicited current response measured at holding potential of -60 mV by two-electrode voltage-clamp method
Type: cell-based, Oocyte

compound	measured.target	unit.of.measure	IC50
C=C1[C@@H]2CCC[C@@]1(COC(=O)c1ccccc1N1C(=O)CC(C)C1=O)CN(CC)C2 (stereo partly specified)	Neuronal acetylcholine receptor subunit alpha-7 (Rattus norvegicus)	µM	20.7

====

Target: Neuronal acetylcholine receptor; alpha4/beta2 (Homo sapiens, UniProt P17787+P43681)
Assay: Inhibition of human (alpha4)3(beta2)2 nAChR expressed in Xenopus laevis oocytes assessed as inhibition of acetylcholine-induced current response in presence of 100 uM acetylcholine by two-electrode voltage-clamp method
Type: cell-based
Conditions: Oocyte
reported.property: logIC50

compound.structure	reported.property	observed.value
C=C1[C@@H]2CCC[C@@]1(COC(=O)c1ccccc1-c1cc(NC(C)=O)ccn1)CN(CC)C2	logIC50	0.6
C=C1[C@@H]2CCC[C@@]1(COC(=O)c1ccccc1-c1cccc(NC(C)=O)n1)CN(CC)C2	logIC50	0.7
CCN1C[C@]2(COC(=O)c3ccccc3N3C(=O)C[C@H](C)C3=O)CC[C@H](OC)[C@]34C1[C@@](O)([C@@H](OC)[C@H]23)[C@@]1(O)C[C@H](OC)[C@H]2C[C@@H]4[C@@H]1[C@H]2OC	logIC50	-1.1
C=C1[C@@H]2CCC[C@@]1(COC(=O)c1ccccc1-c1ccc(NC(C)=O)cn1)CN(CC)C2	logIC50	0.6

====

Biological target: Neuronal acetylcholine receptor; alpha4/beta2 (Homo sapiens, UniProt P17787+P43681)
Assay: Inhibition of human (alpha4)2(beta2)3 nAChR expressed in Xenopus laevis oocytes assessed as inhibition of acetylcholine-induced current response at 10 uM pretreated for 30 secs followed by co-application with acetylcholine measured at holding potential of -60 mV by two-electrode voltage-clamp method
Format: cell-based
Conditions: Oocyte, time 30.0 sec
Activity calls are given as the source filed them. The calls are words filed in the database; no cut-off is given here.
reported.property: inhibition

compound.structure	measured.target	reported.property	observed.value
CCN1C[C@]2(COC(=O)c3ccccc3N3C(=O)C[C@H](C)C3=O)CC[C@H](OC)[C@]34C1[C@@](O)([C@@H](OC)[C@H]23)[C@@]1(O)C[C@H](OC)[C@H]2C[C@@H]4[C@@H]1[C@H]2OC	Neuronal acetylcholine receptor; alpha4/beta2 (Homo sapiens, UniProt P17787+P43681)	inhibition	Active
C=C1[C@@H]2CCC[C@@]1(COC(=O)c1ccccc1-c1cc(NC(C)=O)ccn1)CN(CC)C2	Neuronal acetylcholine receptor; alpha4/beta2 (Homo sapiens, UniProt P17787+P43681)	inhibition	Active
C=C1[C@@H]2CCC[C@@]1(COC(=O)c1ccccc1-c1ccc(NC(C)=O)nc1)CN(CC)C2	Neuronal acetylcholine receptor; alpha4/beta2 (Homo sapiens, UniProt P17787+P43681)	inhibition	Active
C=C1[C@@H]2CCC[C@@]1(COC(=O)c1ccccc1-c1ccnc(NC(C)=O)c1)CN(CC)C2	Neuronal acetylcholine receptor; alpha4/beta2 (Homo sapiens, UniProt P17787+P43681)	inhibition	Active
C=C1[C@@H]2CCC[C@@]1(COC(=O)c1ccccc1-c1cccc(NC(C)=O)n1)CN(CC)C2	Neuronal acetylcholine receptor; alpha4/beta2 (Homo sapiens, UniProt P17787+P43681)	inhibition	Active
C=C1[C@@H]2CCC[C@@]1(COC(=O)c1ccccc1-c1ccccn1)CN(CC)C2	Neuronal acetylcholine receptor; alpha4/beta2 (Homo sapiens, UniProt P17787+P43681)	inhibition	Active
C=C1[C@@H]2CCC[C@@]1(COC(=O)c1ccccc1-c1cncc(NC(C)=O)c1)CN(CC)C2	Neuronal acetylcholine receptor; alpha4/beta2 (Homo sapiens, UniProt P17787+P43681)	inhibition	Active
C=C1[C@@H]2CCC[C@@]1(COC(=O)c1ccccc1-c1ccc(NC(C)=O)cn1)CN(CC)C2	Neuronal acetylcholine receptor; alpha4/beta2 (Homo sapiens, UniProt P17787+P43681)	inhibition	Active
